- Subject Of Test: skeletal myofibrils (Rabbit Psoas) myosin ATPase
- Protocol: Skeletal Myofibril ATPase Assay
- Details: PK/LDH coupled, absorbance at 340 nm
We begin with a simple list: items and their reported IC50.

- Compound: "CCOc1ccc(-c2ccc(=O)n(CCNC(=O)C3CCCC3)n2)cc1 [Compound 28]"
  IC50: "> 100 µM"

The record that follows has no IC50 shown yet.
Sample O=c1ccc(-c2cnc(OCC(F)(F)F)nc2)nn1CCC12CC(C1)C2 [Compound 7] — what was its IC50? ≤ 10 µM

---

We begin with a simple list: items and their reported IC50.
- Subject Of Test: skeletal myofibrils (Rabbit Psoas) myosin ATPase
- Protocol: Skeletal Myofibril ATPase Assay
- Details: PK/LDH coupled, absorbance at 340 nm

# annotated cases, reported IC50 shown
- Molecule: "O=c1ccc(-c2cnc(OCC(F)(F)F)nc2)nn1CCc1ccncc1"
  IC50: "≤ 10 µM"
- Molecule: "C=C(C)Cn1nc(-c2ccc(Br)cc2)ccc1=O"
  IC50: "10 to 100 µM"
- Molecule: "O=c1ccc(-c2cnc(OCC(F)(F)F)nc2)nn1CCc1ccc(Cl)cc1"
  IC50: "≤ 10 µM"
- Molecule: "O=c1ccc(-c2ccc(Cl)cc2)nn1CC1CCCCC1"
  IC50: "≤ 10 µM"
- Molecule: "O=c1ccc(-c2ccc(OC(F)F)cc2)nn1CCc1ccc(Cl)cc1"
  IC50: "≤ 10 µM"

Sample "O=c1ccc(-c2cnc(OCC(F)(F)F)nc2)nn1CCc1ccccn1" — what was its IC50? ≤ 10 µM

Sample "CS(=O)(=O)NCCn1nc(-c2ccc(OC(F)F)nc2)ccc1=O" — what was its IC50? > 100 µM

Sample "COc1ccc(-c2ccc(=O)n(CC3CCCCC3)n2)cc1" — what was its IC50? ≤ 10 µM

Sample "O=c1ccc(-c2cnc(OCC(F)(F)F)nc2)nn1CCc1cncc(F)c1" — what was its IC50? ≤ 10 µM

Sample "CSc1ccc(-c2ccc(=O)n(C/C=C/c3ccccc3)n2)cc1" — what was its IC50? ≤ 10 µM

Sample "O=c1ccc(-c2ccc3c(c2)OCCCO3)nn1CCOc1ccc(F)cc1" — what was its IC50? 10 to 100 µM

Sample "O=c1ccc(-c2cnc(OCC(F)(F)F)nc2)nn1CCCc1ccccc1" — what was its IC50? ≤ 10 µM

Sample "CCCn1nc(-c2cnc(OCC(F)(F)F)nc2)ccc1=O" — what was its IC50? ≤ 10 µM

Sample "CC1(Cn2nc(-c3cnc(OCC(F)(F)F)nc3)ccc2=O)COC1" — what was its IC50? > 100 µM

---

- Subject Of Test: skeletal myofibrils (Rabbit Psoas) myosin ATPase
- Protocol: Skeletal Myofibril ATPase Assay
- Details: PK/LDH coupled, absorbance at 340 nm
Experimental Readout: IC50

- Compound: "CC1CC1CCn1nc(-c2cnc(OCC(F)(F)F)nc2)ccc1=O (stereo not drawn)"
  Subject Of Test: "skeletal myofibrils (Rabbit Psoas) myosin ATPase"
  Val: "≤ 10 µM"
- Compound: "COc1ccc(-c2ccc(=O)n(CCNC(=O)Nc3cccs3)n2)cc1"
  Subject Of Test: "skeletal myofibrils (Rabbit Psoas) myosin ATPase"
  Val: "> 100 µM"
- Compound: "N#CCn1nc(-c2ccc(Br)cc2)ccc1=O"
  Subject Of Test: "skeletal myofibrils (Rabbit Psoas) myosin ATPase"
  Val: "10 to 100 µM"

Given the entry "COc1ccc(-c2ccc(=O)n(CCc3ccccc3)n2)cc1" , what IC50 was observed with skeletal myofibrils (Rabbit Psoas) myosin ATPase? ≤ 10 µM

Given the entry "O=c1ccc(-c2cnc(OCC(F)(F)F)nc2)nn1CCc1ccccc1" , what IC50 was observed with skeletal myofibrils (Rabbit Psoas) myosin ATPase? ≤ 10 µM

Given the entry "CC(C)(C)CCn1nc(-c2cnc(OCC(F)(F)F)nc2)ccc1=O" , what IC50 was observed with skeletal myofibrils (Rabbit Psoas) myosin ATPase? 10 to 100 µM

Given the entry CC(Cn1nc(-c2cnc(OCC(F)(F)F)nc2)ccc1=O)c1ccccc1 (stereo not drawn) , what IC50 was observed with skeletal myofibrils (Rabbit Psoas) myosin ATPase? ≤ 10 µM

Given the entry O=c1ccc(-c2ccccc2)nn1CC(O)COCc1ccccc1Cl (stereo not drawn) , what IC50 was observed with skeletal myofibrils (Rabbit Psoas) myosin ATPase? 10 to 100 µM

Given the entry "O=c1ccc(-c2ccc(OC(F)F)nc2)nn1CCc1ccc(Cl)cc1" , what IC50 was observed with skeletal myofibrils (Rabbit Psoas) myosin ATPase? ≤ 10 µM

Given the entry "CC1(Cn2nc(-c3ccc(OC(F)F)nc3)ccc2=O)COC1" , what IC50 was observed with skeletal myofibrils (Rabbit Psoas) myosin ATPase? > 100 µM

Given the entry "O=c1ccc(-c2cnc(OCC(F)(F)F)nc2)nn1CCC1CC1" , what IC50 was observed with skeletal myofibrils (Rabbit Psoas) myosin ATPase? ≤ 10 µM

Given the entry "O=C(CCn1nc(-c2ccccc2)ccc1=O)NC1CCCCC1" , what IC50 was observed with skeletal myofibrils (Rabbit Psoas) myosin ATPase? > 100 µM

Given the entry "O=c1ccc(-c2ccc(OC(F)F)nc2)nn1CCO" , what IC50 was observed with skeletal myofibrils (Rabbit Psoas) myosin ATPase? > 100 µM

Given the entry "CCOc1ccc(-c2ccc(=O)n(CCNC(=O)CC3CCCC3)n2)cc1" , what IC50 was observed with skeletal myofibrils (Rabbit Psoas) myosin ATPase? > 100 µM

Given the entry "O=c1ccc(-c2cnc(OCC(F)(F)F)nc2)nn1CCC1CCC1" , what IC50 was observed with skeletal myofibrils (Rabbit Psoas) myosin ATPase? ≤ 10 µM

Given the entry "O=c1ccc(-c2ccc(Cl)cc2)nn1CC1CCOCC1" , what IC50 was observed with skeletal myofibrils (Rabbit Psoas) myosin ATPase? > 100 µM

Given the entry CCNC(Cn1nc(-c2ccc(OC(F)F)nc2)ccc1=O)C(F)(F)F (stereo not drawn) , what IC50 was observed with skeletal myofibrils (Rabbit Psoas) myosin ATPase? > 100 µM

Given the entry "N#CCn1nc(-c2cnc(OCC(F)(F)F)nc2)ccc1=O" , what IC50 was observed with skeletal myofibrils (Rabbit Psoas) myosin ATPase? 10 to 100 µM

Given the entry "CC(=O)NCCn1nc(-c2ccc(OC(F)F)cc2)ccc1=O" , what IC50 was observed with skeletal myofibrils (Rabbit Psoas) myosin ATPase? > 100 µM

Given the entry "CC(C)OCCn1nc(-c2ccc3c(c2)OCCCO3)ccc1=O" , what IC50 was observed with skeletal myofibrils (Rabbit Psoas) myosin ATPase? 10 to 100 µM

Given the entry "O=c1ccc(-c2ccc(Cl)cc2)nn1CCc1ccccc1" , what IC50 was observed with skeletal myofibrils (Rabbit Psoas) myosin ATPase? ≤ 10 µM
